Data credit: patent US20180282402A1

Some binders, each annotated with its measured Kd.
Target: T1, Human HARS (human, UniProt P12081 1-509, limits assumed)
T1 construct: also called human HRS; human histidyl-tRNA synthetase
T1 sequence: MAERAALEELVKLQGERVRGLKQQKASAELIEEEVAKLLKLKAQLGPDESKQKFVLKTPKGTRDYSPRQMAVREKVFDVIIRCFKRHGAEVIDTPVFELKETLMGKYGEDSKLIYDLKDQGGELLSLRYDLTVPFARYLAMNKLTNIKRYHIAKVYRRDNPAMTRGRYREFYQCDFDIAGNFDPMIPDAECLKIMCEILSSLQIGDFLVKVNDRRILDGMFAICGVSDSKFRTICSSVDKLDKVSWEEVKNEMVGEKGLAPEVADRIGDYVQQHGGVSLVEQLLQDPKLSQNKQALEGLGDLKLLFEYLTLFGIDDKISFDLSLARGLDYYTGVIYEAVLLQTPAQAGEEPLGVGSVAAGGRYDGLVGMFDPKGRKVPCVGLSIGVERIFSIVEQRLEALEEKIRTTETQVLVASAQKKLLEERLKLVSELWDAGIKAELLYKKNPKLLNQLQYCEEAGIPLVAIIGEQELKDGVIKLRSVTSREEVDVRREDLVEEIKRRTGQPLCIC
Experiment: SPR (ProteOn); HRS protein immobilized, antibody as analyte
Just the number please, in nM, no unit attached.

These solved cases illustrate the format of a correct answer.
Binder | Kd, nM
AB13-259 (IgG4-2 kappa) (antibody, V domains shown, Human) VH: QVQLVESGGGLVKPGGSLRLSCAASGFTFSDYYMSWIRQAPGKGLEWVSYISDKSRYTKYTDSVRGRFTISRDNAKNSLYLQMNSLRAEDTAVYYCARYLYQVIAIADAWGQGTLVTVSS VL: DIQMTQSPSSVSASVGDRVTITCRASQGISSWLAWFQQKPGKAPKLLIFVASNLESGVPSRFSGSGSGTDFTLTISSLQPEDFATYYCQQAESFPYTFGQGTKLEIK | 0.029
AB04-411 (antibody, V domains shown, Human; IgG1m(zf) kappa) VH: QVQLVESGGGLVKPGGSLRLSCAASGFTFSDYYMTWIRQAPGKGLEWVSYISGSNAYTDYADSVKGRFTISRDNAKNSLYLQMNSLRDEDTAVYFCARYVYQVVAVGDLWGQGTLVTVSS VL: DIQMTQSPSSVSASVGDRVTITCRASQGISSWLAWYQQKPGRAPKLLIFAASSLQSGVPSRFSGSGSGTHFTLTISSLQPEDFATYYCQQAKSFPYTFGQGTKLEIK | 1.9
AB04-425 (antibody, V domains shown, Human; IgG1m(zf) kappa) VH: QVQLVESGGGLVKPGGSLRLSCAASGFTFSDYYMTWIRQAPGKGLEWVSYISGSFRYTNYADKVKGRFTISRDNAKNSLYLQMNSLRDEDTAVYFCARYVYQVVAIGDLWGQGTLVTVSS VL: DIQMTQSPSSVSASVGDRVTITCRASQGISSWLAWYQQKPGRAPKLLIFAASSLQSGVPSRFSGSGSGTHFTLTISSLQPEDFATYYCQQAESFPYTFGQGTKLEIK | 0.01
KL31-275 (antibody, IgG1, V domains shown, Mouse; IgG1 kappa) VH: QVQLQQSGAELVRPGSSVRMSCKAVGYTFTDYCIGWIKQRPGHGLEWIGDICPGDAYTNDNEKFKDKATLTADTSSTTAYMQLSSLTSEDSAIYYCARGEEQVGLRNAMDYWGQGTSVTVSS VL: DIVLTQSPASLAVSLGQRATISCQSQSVSTSTYNYMHWYQQKPGQPPKLLIKYASNLESGVPARFSGSGSGTDFTLNIHPVEEEDTATYYCQHSWEIPWTFGGGTKLEIK | 6.79

Consider the record given below.
Task: Given the entry AB04-160 (antibody, V domains shown, Human; IgG1m(zf) kappa) VH: QVQLVESGGGLVKPGGSLRLSCAASGFTFSDYYMTWIRQAPGKGLEWVSYISGSFRYTNYADSVKGRFTISRDNAKNSLYLQMNSLRDEDTAVYFCARYVYQVVAIGDLWGQGTLVTVSS VL: DIQMTQSPSSVSASVGDRVTITCRASQGISSWLAWYQQKPGRAPKLLIFAASSLQSGVPSRFSGSGSGTHFTLTISSLQPEDFATYYCQQAKSFPYTFGQGTKLEIK , report its measured Kd.
Result: 0.06
